All values here come from paper PMC9820316.

System: normal ECG in rats
Test: Effect on a normal electrocardiogram in rats
Format: in vivo, rat
Details: 5 mg/kg iv, 5 min; mean ± SD
Property: HR—heart rate
Simply state the number, no unit and no words.

Briefly, HR—heart rate measured for `Cl.NC(=O)c1ccccc1OCCCCCN1CCN(c2cccc(Cl)c2)CC1` : 278.7

Briefly, HR—heart rate measured for `COc1ccccc1N1CCN(Cc2cccc(COc3ccccc3C(N)=O)c2)CC1.Cl` : 266.5

Briefly, HR—heart rate measured for `COc1ccccc1N1CCN(CCCCOc2ccccc2C(N)=O)CC1.Cl` : 341.2

Briefly, HR—heart rate measured for `Cl.NC(=O)c1ccccc1OCCCCN1CCN(c2cccc(Cl)c2)CC1` : 318.0

Briefly, HR—heart rate measured for `Cl.NC(=O)c1ccccc1OCCCCCCN1CCN(c2cccc(Cl)c2)CC1` : 289.1

Briefly, HR—heart rate measured for `COc1ccccc1N1CCN(Cc2ccc(COc3ccccc3C(N)=O)cc2)CC1.Cl` : 256.8

* * *

System: normotensive rats
Assay: Influence on blood pressure in the normotensive rats
Type: in vivo, rat
Settings: 2.5 mg/kg iv, 5 min; mean ± SD
Marks after values point to notes of the source that are not given here.
Property: DBP—diastolic blood pressure

Briefly, DBP—diastolic blood pressure measured for `COc1ccccc1N1CCN(Cc2ccc(COc3ccccc3C(N)=O)cc2)CC1.Cl` : 94.5 ± 16.5 mmHg

Briefly, DBP—diastolic blood pressure measured for `Cl.NC(=O)c1ccccc1OCCCCCCN1CCN(c2cccc(Cl)c2)CC1` : 83.3 ± 12.8 mmHg

Briefly, DBP—diastolic blood pressure measured for `Cl.NC(=O)c1ccccc1OCCCCCN1CCN(c2cccc(Cl)c2)CC1` : 72.0 ± 9.4 ^c mmHg

Briefly, DBP—diastolic blood pressure measured for `COc1ccccc1N1CCN(Cc2cccc(COc3ccccc3C(N)=O)c2)CC1.Cl` : 84.7 ± 10.0 mmHg

* * *

Tested on: normal ECG in rats
Assay: Effect on a normal electrocardiogram in rats
Type: in vivo, rat
Settings: 5 mg/kg iv, 5 min; mean ± SD; in ms (unit assumed)
API: label(entry) gives 1.0 if the entry's QRS complex is strictly smaller than 40; on equality or larger values it gives 0.0.

QUERY: I wonder whether `Cl.NC(=O)c1ccccc1OCCCCN1CCN(c2cccc(Cl)c2)CC1` has QRS complex below 40. Can you tell?
RESULT: 0.0

QUERY: I wonder whether `COc1ccccc1N1CCN(CCCCOc2ccccc2C(N)=O)CC1.Cl` has QRS complex below 40. Can you tell?
RESULT: 0.0

QUERY: I wonder whether `COc1ccccc1N1CCN(Cc2ccc(COc3ccccc3C(N)=O)cc2)CC1.Cl` has QRS complex below 40. Can you tell?
RESULT: 0.0

QUERY: I wonder whether `Cl.NC(=O)c1ccccc1OCCCCCN1CCN(c2cccc(Cl)c2)CC1` has QRS complex below 40. Can you tell?
RESULT: 1.0

QUERY: I wonder whether `COc1ccccc1N1CCN(Cc2cccc(COc3ccccc3C(N)=O)c2)CC1.Cl` has QRS complex below 40. Can you tell?
RESULT: 0.0

* * *

Tested on: normal ECG in rats
Experiment: Effect on a normal electrocardiogram in rats
Format: in vivo, rat
Details: 5 mg/kg iv, 10 min; mean ± SD; in ms (unit assumed)
Property: QTc (Bazzett's formula)
Simply state the number, no unit and no words.

Briefly, QTc (Bazzett's formula) measured for `COc1ccccc1N1CCN(Cc2ccc(COc3ccccc3C(N)=O)cc2)CC1.Cl` : 190.3

Briefly, QTc (Bazzett's formula) measured for `COc1ccccc1N1CCN(CCCCOc2ccccc2C(N)=O)CC1.Cl` : 196.3

Briefly, QTc (Bazzett's formula) measured for `COc1ccccc1N1CCN(Cc2cccc(COc3ccccc3C(N)=O)c2)CC1.Cl` : 193.6

Briefly, QTc (Bazzett's formula) measured for `Cl.NC(=O)c1ccccc1OCCCCN1CCN(c2cccc(Cl)c2)CC1` : 186.6

Briefly, QTc (Bazzett's formula) measured for `Cl.NC(=O)c1ccccc1OCCCCCCN1CCN(c2cccc(Cl)c2)CC1` : 174.8

Briefly, QTc (Bazzett's formula) measured for `Cl.NC(=O)c1ccccc1OCCCCCN1CCN(c2cccc(Cl)c2)CC1` : 173.2
